- assayTarget: UniProt:P0C6X7
- assayRemarks: Inhibition of GST-tagged SARS coronavirus 3C-like protease at 1 mM by FRET assay
Label 1 (yes) for high-side inhibition (at or above 80%) and 0 (no) for low-side inhibition (below it).

[[record]]
smi = "O=C1Nc2ccc(I)cc2C1=O"
labelclass = "1 (yes)"

[[record]]
smi = "CN1CCN(S(=O)(=O)c2ccc3c(c2)C(=O)C(=O)N3)CC1"
labelclass = "1 (yes)"

[[record]]
smi = "O=C1Nc2cccc(Br)c2C1=O"
labelclass = "0 (no)"

[[record]]
smi = "COc1ccc2c(c1)C(=O)C(=O)N2"
labelclass = "1 (yes)"

[[record]]
smi = "O=C1Nc2ccc(C(=O)O)cc2C1=O"
labelclass = "0 (no)"

[[record]]
smi = "O=C1Nc2ccc(Cl)cc2C1=O"
labelclass = "1 (yes)"


###

- assayTarget: Replicase polyprotein 1ab (Severe acute respiratory syndrome-related coronavirus)
- assayRemarks: Inhibition of GST-tagged SARS coronavirus 3C-like protease at 1 mM by FRET assay
observationType: inhibition

[[record]]
smi = "O=C1Nc2ccc([N+](=O)[O-])cc2C1=O"
datavalue = "94%"

[[record]]
smi = "O=C1Nc2ccc(F)cc2C1=O"
datavalue = "82.5%"

[[record]]
smi = "CC(=O)c1ccc2c(c1)C(=O)C(=O)N2"
datavalue = "95.4%"

[[record]]
smi = "O=C1Nc2ccc(Br)cc2C1=O"
datavalue = "90.5%"


###

Reported IC50 values for a set of compounds
- assayTarget: Replicase polyprotein 1ab (Severe acute respiratory syndrome-related coronavirus, UniProt P0C6X7)
observationType: IC50

[[record]]
compound = "CN1CCN(S(=O)(=O)c2ccc3c(c2)C(=O)C(=O)N3C)CC1"
datavalue = "11.8 µM"

[[record]]
compound = "CC1CCN(S(=O)(=O)c2ccc3c(c2)C(=O)C(=O)N3)CC1"
datavalue = "1.18 µM"

[[record]]
compound = "CC1CCCCN1S(=O)(=O)c1ccc2c(c1)C(=O)C(=O)N2 (configuration not stated)"
datavalue = "2.25 µM"

[[record]]
compound = "O=C1Nc2ccc(S(=O)(=O)N3CCN(c4ccccn4)CC3)cc2C1=O"
datavalue = "51.3 µM"

[[record]]
compound = "CN1C(=O)C(=O)c2cc(S(=O)(=O)N3CCOCC3)ccc21"
datavalue = "9.91 µM"

[[record]]
compound = "O=C1Nc2ccc(S(=O)(=O)N3CCN(c4ccc(F)cc4)CC3)cc2C1=O"
datavalue = "> 100 µM"

[[record]]
compound = "CN1C(=O)C(=O)c2cc(S(=O)(=O)N3CCN(CCc4ccccc4)CC3)ccc21"
datavalue = "13.9 µM"

[[record]]
compound = "CC1CCN(S(=O)(=O)c2ccc3c(c2)C(=O)C(=O)N3Cc2ccc3ccccc3c2)CC1"
datavalue = "17.8 µM"

[[record]]
compound = "COc1cc(CN2CCN(S(=O)(=O)c3ccc4c(c3)C(=O)C(=O)N4)CC2)cc(OC)c1OC"
datavalue = "32.1 µM"

[[record]]
compound = "O=C1C(=O)N(Cc2ccc3ccccc3c2)c2ccc(S(=O)(=O)N3CCOCC3)cc21"
datavalue = "39.9 µM"

[[record]]
compound = "CN1C(=O)C(=O)c2cc(S(=O)(=O)N3CCN(c4ccccn4)CC3)ccc21"
datavalue = "5.52 µM"

[[record]]
compound = "CN1CCN(S(=O)(=O)c2ccc3c(c2)C(=O)C(=O)N3Cc2ccccc2)CC1"
datavalue = "67.2 µM"

[[record]]
compound = "CC1CC(C)CN(S(=O)(=O)c2ccc3c(c2)C(=O)C(=O)N3)C1 (configuration not stated)"
datavalue = "4.3 µM"

[[record]]
compound = "O=C1C(=O)N(Cc2ccccc2)c2ccc(S(=O)(=O)N3CCCCC3)cc21"
datavalue = "14 µM"

[[record]]
compound = "O=C1Nc2ccc(S(=O)(=O)N3CCN(c4cccc(C(F)(F)F)c4)CC3)cc2C1=O"
datavalue = "> 100 µM"

[[record]]
compound = "CC1CC(C)CN(S(=O)(=O)c2ccc3c(c2)C(=O)C(=O)N3Cc2ccccc2)C1 (configuration not stated)"
datavalue = "4.7 µM"

[[record]]
compound = "CC1CCN(S(=O)(=O)c2ccc3c(c2)C(=O)C(=O)N3Cc2ccccc2)CC1"
datavalue = "1.69 µM"

[[record]]
compound = "O=C1C(=O)N(Cc2ccccc2)c2ccc(S(=O)(=O)N3CCOCC3)cc21"
datavalue = "13.9 µM"

[[record]]
compound = "O=C1Nc2ccc(S(=O)(=O)N3CCOCC3)cc2C1=O"
datavalue = "12.7 µM"

[[record]]
compound = "O=C1Nc2ccc(S(=O)(=O)N3CCN(Cc4cccc(Cl)c4)CC3)cc2C1=O"
datavalue = "31.7 µM"

[[record]]
compound = "O=C1Nc2ccc(S(=O)(=O)N3CCN(CCc4ccccc4)CC3)cc2C1=O"
datavalue = "34.9 µM"

[[record]]
compound = "CN1CCN(S(=O)(=O)c2ccc3c(c2)C(=O)C(=O)N3)CC1"
datavalue = "76.7 µM"

[[record]]
compound = "CC1CC(C)CN(S(=O)(=O)c2ccc3c(c2)C(=O)C(=O)N3C)C1 (configuration not stated)"
datavalue = "2.82 µM"

[[record]]
compound = "CN1CCN(S(=O)(=O)c2ccc3c(c2)C(=O)C(=O)N3Cc2ccc3ccccc3c2)CC1"
datavalue = "82.9 µM"

[[record]]
compound = "CC1CCN(S(=O)(=O)c2ccc3c(c2)C(=O)C(=O)N3C)CC1"
datavalue = "1.04 µM"

[[record]]
compound = "O=C1Nc2ccc(S(=O)(=O)N3CCCCC3)cc2C1=O"
datavalue = "4.45 µM"

[[record]]
compound = "O=C1Nc2ccc(S(=O)(=O)N3CCN(C(=O)c4ccco4)CC3)cc2C1=O"
datavalue = "10.1 µM"

